Below, each of the binders is paired with its reported glycan array binding signal (z-score) value.
Experimental Target: Fuc(a1-2)Gal(b1-3)[Fuc(a1-4)]GlcNAc(b1-2)Man(a1-3)[Fuc(a1-2)Gal(b1-3)[Fuc(a1-4)]GlcNAc(b1-2)Man(a1-6)]Man(b1-4)GlcNAc(b1-4)[Fuc(a1-6)]GlcNAc(b1-4)[Fuc(a1-6)]GlcNAc
Test Protocol: glycan array binding signal (z-score within array); higher = stronger binding
Experimental Setup: glycan notation: IUPAC condensed, linker removed
About 410 targets per protein were measured; listed, in parts, are those with the strongest signals and a random draw of the rest.
Observation Type: glycan array binding signal (z-score)

binder="LysMD3 (Homo sapiens), Q7Z3D4 (protein) MAGRHQNRSFPLPGVQSSGQVHAFGNCSDSDILEEDAEVYELRSRGKEKVRRSTSRDRLDDIIVLTKDIQEGDTLNAIALQYCCTVADIKRVNNLISDQDFFALRSIKIPVKKFSSLTETLCPPKGRQTSRHSSVQYSSEQQEILPANDSLAYSDSAGSFLKEVDRDIEQIVKCTDNKRENLNEVVSALTAQQMRFEPDNKNTQRKDPYYGADWGIG" recorded_number=0.341
binder="SBD-G4S3-Fc (protein) MASIPSSASVQLDSYNYDGSTFSGKIYVKNIAYSKKVTVVYADGSDNWNNNGNIIAASFSGPISGSNYEYWTFSASVKGIKEFYIKYEVSGKTYYDNNNSANYQVSTGGGGSGGGGSGGGGSEFVPRDCGCKPCICTVPEVSSVFIFPPKPKDVLTITLTPKVTCVVVDISKDDPEVQFSWFVDDVEVHTAQTQPREEQFNSTFRSVSELPIMHQDWLNGKEFKCRVNSAAFPAPIEKTISKTKGRPKAPQVYTIPPPKEQMAKDKVSLTCMITDFFPEDITVEWQWNGQPAENYKNTQPIMDTDGSYFVYSKLNVQKSNWEAGNTFTCSVLHEGLHNHHTEKSLSHSPGAA" recorded_number=0.339
